- assay_target: T1, human Protein S (human, UniProt P07225 42-676)
- T1 sequence: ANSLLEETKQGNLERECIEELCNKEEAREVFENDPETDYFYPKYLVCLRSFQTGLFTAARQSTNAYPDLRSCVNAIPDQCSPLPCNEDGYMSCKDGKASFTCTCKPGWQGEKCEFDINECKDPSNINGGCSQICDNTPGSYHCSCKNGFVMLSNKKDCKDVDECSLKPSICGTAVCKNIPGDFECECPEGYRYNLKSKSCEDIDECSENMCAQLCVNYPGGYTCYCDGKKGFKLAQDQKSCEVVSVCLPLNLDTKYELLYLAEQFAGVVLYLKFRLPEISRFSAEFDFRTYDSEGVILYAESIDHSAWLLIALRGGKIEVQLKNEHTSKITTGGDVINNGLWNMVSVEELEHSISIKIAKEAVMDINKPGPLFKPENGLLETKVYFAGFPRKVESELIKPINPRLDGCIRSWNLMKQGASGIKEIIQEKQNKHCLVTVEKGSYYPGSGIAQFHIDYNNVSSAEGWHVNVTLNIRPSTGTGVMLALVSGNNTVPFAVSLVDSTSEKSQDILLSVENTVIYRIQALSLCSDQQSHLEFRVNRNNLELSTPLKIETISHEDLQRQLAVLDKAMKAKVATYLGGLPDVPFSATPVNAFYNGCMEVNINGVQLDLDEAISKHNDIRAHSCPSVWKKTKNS
- test_description: cell-based or functional assay
Each record is given yes if its reported IC50 APC is strictly below 100 nM. Records at or above 100 nM are given no.

Please review the following examples before continuing.
>  <binder>
Antibody 42 (antibody, V domains shown, Human variable region with rat Fc) VH: QVQLVQSGSEVKKPGASVKVSCKASGYTFTNYYIHWVRQAPGQGLEWMGIITPSGGTTSYAQKFQGRVTMTRDTSTNTVYMGLSSLRSEDTAMYYCARAGVQLDRRGWFDPWGQGTLVTVSS VL: SYELTQPPSVSVSPGQTASITCSGDKLGDKYVFWYQQKPGQSPVLVIYQDSKRPSGIPERFSGSNSGNTATLTISGTQTMDEADYYCQAWDSSTVGFGGGTKLAVL

>  <label_value>
no

$$$$
>  <binder>
Antibody 13 (antibody, V domains shown, Human variable region with rat Fc) VH: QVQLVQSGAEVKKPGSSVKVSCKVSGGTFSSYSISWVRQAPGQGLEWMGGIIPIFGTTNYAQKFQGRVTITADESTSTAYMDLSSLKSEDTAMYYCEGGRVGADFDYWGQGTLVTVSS VL: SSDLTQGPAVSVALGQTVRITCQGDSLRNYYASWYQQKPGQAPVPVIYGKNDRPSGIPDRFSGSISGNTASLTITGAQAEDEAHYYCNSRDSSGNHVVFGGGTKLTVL

>  <label_value>
yes

$$$$

INPUT: Hi there! Is IC50 APC for Antibody 40 (antibody, V domains shown, Human variable region with rat Fc) VH: EVQLVESGGGLVQPGGSLRLSCAASGFTFSSYSMNWVRQAPGKGLEWVAYISSSTRTIFYADSVKGRFTISRDNAKNSLYLQMNSLRDEDTAFYYCARERSAFDYWGQGTLVTVSS VL: SYVLTQPPSVSVAPGQTARITCGGDNIGGKSVHWYQQKPGQAPVMVVYDDSDRPSGIPERFAGSNSGNTATLAISRVEAGDEADYYCQVWEITSDHPAFGGGTRLTVL below 100 nM, do you know?
OUTPUT: yes

INPUT: Hi there! Is IC50 APC for Antibody 34 (antibody, V domains shown) VH: QVQLQQSGTELVRPGTSVKMSCKAAGYTFTNHWIGWVKQRPGHGLEWIGDIYPGGGYTNYNEKFKGKASLTADTSSTTAYMQLSSLTSEDSAIYYCSRFGDQNWAWFAYWGQGTLVTVSA VL: DIQMNQSPSSLSASLGDTITITCRASQNIHMWLSWYQQKPGNIPKLLIFKTSNLHTGVPSRFSGSGSGTDFTLTISSLQPEDIATYYCLQGQSYPFTFGGGTKLEIK below 100 nM, do you know?
OUTPUT: yes

INPUT: Hi there! Is IC50 APC for Antibody 33 (antibody, V domains shown, Human variable region with rat Fc) VH: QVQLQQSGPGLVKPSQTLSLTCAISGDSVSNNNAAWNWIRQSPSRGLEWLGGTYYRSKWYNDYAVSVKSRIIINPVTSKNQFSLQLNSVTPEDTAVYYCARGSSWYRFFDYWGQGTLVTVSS VL: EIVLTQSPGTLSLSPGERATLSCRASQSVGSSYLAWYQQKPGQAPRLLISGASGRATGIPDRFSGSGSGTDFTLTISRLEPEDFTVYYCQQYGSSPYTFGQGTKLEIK below 100 nM, do you know?
OUTPUT: yes
